meta.source: patent US12655125B2

Test system: HT-29 cells
Experiment: HT29 Cells 0FBS Assay In Vitro (TNF-α/SMAC mimetic/zVAD-FMK induced necroptosis, CellTiter-Glo cell viability)
Assay type: cell-based
Conditions: Homo sapiens; HT-29 cells, FBS free medium, TNF-α (10 ng/ml), SMAC mimetic (6 uM), zVAD-FMK (10 μM), 20 hours; geometric mean EC50; read-out: Cell activity (EC50) of Compounds 117-281
Source text: Protocol for HT29 Cells 0FBS Assay In Vitro […]
pEC50: −log10 of the molar value.
QUANTITY MEASURED: pEC50

Incoming: Quick one: pEC50 of Cc1c([S+](C)[O-])nn(C)c1-c1cc(OC2CN(C(=O)N3N=CC[C@H]3c3cc(F)cc(F)c3)C2)c(F)cn1 (stereo in doubt) ?
Outgoing: 7.00 to 10.00

Incoming: Quick one: pEC50 of `Cn1nc(NC(=O)C2CC2)cc1-c1cc(OC2CN(C(=O)N3N=CC[C@H]3c3cc(F)cc(F)c3)C2)c(F)cn1` ?
Outgoing: 7.00 to 10.00

Incoming: Quick one: pEC50 of `Cn1nc(C#N)cc1-c1cc(OC2CN(C(=O)N3N=CC[C@H]3c3cc(F)cc(F)c3)C2)c(F)cn1` ?
Outgoing: 7.00 to 10.00
